# RUN PARAMETERS: human gut metagenome, 24 h, 2 µM; also: call rule not given here
QUANTITY: Bacterial Biotransformation

Some compounds with recorded Bacterial Biotransformation:
| COMPOUND | Bacterial Biotransformation |
| --- | --- |
| O=P1(N(CCCl)CCCl)NCCCO1 (configuration not stated) [CYCLOPHOSPHAMIDE ANHYDROUS] | Compound metabolized |
| CN1CCN2c3ccccc3Cc3ccccc3C2C1 (configuration not stated) | Compound metabolized |
| CC(C)C[C@H]1C(=O)N2CCC[C@H]2[C@]2(O)O[C@](NC(=O)[C@@H]3C=C4c5cccc6[nH]c(Br)c(c56)C[C@H]4N(C)C3)(C(C)C)C(=O)N12.CS(=O)(=O)O [BROMOCRIPTINE MESYLATE] | Compound NOT metabolized |
| COc1cc(NC(C)CCCN)c2ncccc2c1.O=P(O)(O)O.O=P(O)(O)O (configuration not stated) [PRIMAQUINE PHOSPHATE] | Compound NOT metabolized |

Respectfully, I request Bacterial Biotransformation for each entry included below.
1. CCCCC(=O)O[C@]1(C(=O)CO)[C@@H](C)C[C@H]2[C@@H]3CCC4=CC(=O)C=C[C@]4(C)[C@@]3(F)[C@@H](O)C[C@@]21C [BETAMETHASONE VALERATE]
2. CC#C[C@]1(O)CC[C@H]2[C@@H]3CCC4=CC(=O)CCC4=C3[C@@H](c3ccc(N(C)C)cc3)C[C@@]21C
3. CN(CCOc1ccc(CC2SC(=O)NC2=O)cc1)c1ccccn1.O=C(O)/C=C\C(=O)O (configuration not stated) [ROSIGLITAZONE MALEATE]

[reply]
1: Compound metabolized; 2: Compound metabolized; 3: Compound metabolized

Return reported Bacterial Biotransformation values for all items listed beneath this line.
1. CC(=O)Oc1ccc(C(c2ccc(OC(C)=O)cc2)c2ccccn2)cc1
2. CCOC(=O)[C@H](CCc1ccccc1)N[C@@H](C)C(=O)N1CCC[C@H]1C(=O)O.O=C(O)/C=C\C(=O)O [ENALAPRIL MALEATE]
3. COc1cc(C(=O)NCc2ccc(OCCN(C)C)cc2)cc(OC)c1OC [TRIMETHOBENZAMIDE]
4. COC(=O)C(c1ccccc1)C1CCCCN1 (configuration not stated) [METHYLPHENIDATE]
5. CCCCCNC(=N)N/N=C/c1c[nH]c2ccc(OC)cc12.O=C(O)/C=C\C(=O)O [TEGASEROD MALEATE]
6. CC(C)(C)NCC(O)COc1cccc2c1CC(O)C(O)C2 (configuration not stated)
7. CC(C)(C)N.CCC[C@H](N[C@@H](C)C(=O)N1[C@H](C(=O)O)C[C@@H]2CCCC[C@@H]21)C(=O)OCC

[reply]
1. Compound metabolized
2. Compound NOT metabolized
3. Compound NOT metabolized
4. Compound metabolized
5. Compound NOT metabolized
6. Compound metabolized
7. Compound metabolized

Please give Bacterial Biotransformation for each item listed below.
1. CC(CCc1ccccc1)NCC(O)c1ccc(O)c(C(N)=O)c1 (configuration not stated)
2. O=C(O)c1cc(/N=N/c2ccc(S(=O)(=O)Nc3ccccn3)cc2)ccc1O
3. CCOc1cc(CC(=O)N[C@@H](CC(C)C)c2ccccc2N2CCCCC2)ccc1C(=O)O [REPAGLINIDE]
4. O=C([O-])C[C@H](O)C[C@H](O)/C=C/c1c(C2CC2)nc2ccccc2c1-c1ccc(F)cc1.O=C([O-])C[C@H](O)C[C@H](O)/C=C/c1c(C2CC2)nc2ccccc2c1-c1ccc(F)cc1.[Ca+2]
5. Br.COc1ccc2c(c1)[C@]13CCCC[C@@H]1[C@H](C2)N(C)CC3.O [DEXTROMETHORPHAN HYDROBROMIDE]
6. CN(C)C(=O)Oc1cc(OC(=O)N(C)C)cc(C(O)CNC(C)(C)C)c1 (configuration not stated)
7. CC(=O)OCC(=O)NCCCOc1cccc(CN2CCCCC2)c1 [ROXATIDINE ACETATE]

[reply]
1: Compound metabolized; 2: Compound metabolized; 3: Compound metabolized; 4: Compound metabolized; 5: Compound metabolized; 6: Compound metabolized; 7: Compound NOT metabolized
